Source of measurements: patent US20260028354A1

MEASURED ON: CRBN/DDB1 (Homo sapiens (Human), UniProt Q96SW2)
Sequence (Q96SW2 whole entry, species assumed): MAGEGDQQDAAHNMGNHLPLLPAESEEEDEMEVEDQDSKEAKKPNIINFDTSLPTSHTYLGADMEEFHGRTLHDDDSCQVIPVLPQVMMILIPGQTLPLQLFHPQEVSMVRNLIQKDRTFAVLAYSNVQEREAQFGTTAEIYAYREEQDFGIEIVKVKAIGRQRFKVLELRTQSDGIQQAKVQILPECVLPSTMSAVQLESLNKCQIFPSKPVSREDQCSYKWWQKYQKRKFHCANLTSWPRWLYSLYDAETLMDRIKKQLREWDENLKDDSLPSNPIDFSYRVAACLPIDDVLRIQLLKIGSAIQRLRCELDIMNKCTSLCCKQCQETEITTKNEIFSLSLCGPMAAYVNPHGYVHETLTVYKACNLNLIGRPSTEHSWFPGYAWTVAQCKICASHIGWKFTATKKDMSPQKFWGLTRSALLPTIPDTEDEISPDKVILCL
Sequence (Q16531 whole entry partner, species assumed): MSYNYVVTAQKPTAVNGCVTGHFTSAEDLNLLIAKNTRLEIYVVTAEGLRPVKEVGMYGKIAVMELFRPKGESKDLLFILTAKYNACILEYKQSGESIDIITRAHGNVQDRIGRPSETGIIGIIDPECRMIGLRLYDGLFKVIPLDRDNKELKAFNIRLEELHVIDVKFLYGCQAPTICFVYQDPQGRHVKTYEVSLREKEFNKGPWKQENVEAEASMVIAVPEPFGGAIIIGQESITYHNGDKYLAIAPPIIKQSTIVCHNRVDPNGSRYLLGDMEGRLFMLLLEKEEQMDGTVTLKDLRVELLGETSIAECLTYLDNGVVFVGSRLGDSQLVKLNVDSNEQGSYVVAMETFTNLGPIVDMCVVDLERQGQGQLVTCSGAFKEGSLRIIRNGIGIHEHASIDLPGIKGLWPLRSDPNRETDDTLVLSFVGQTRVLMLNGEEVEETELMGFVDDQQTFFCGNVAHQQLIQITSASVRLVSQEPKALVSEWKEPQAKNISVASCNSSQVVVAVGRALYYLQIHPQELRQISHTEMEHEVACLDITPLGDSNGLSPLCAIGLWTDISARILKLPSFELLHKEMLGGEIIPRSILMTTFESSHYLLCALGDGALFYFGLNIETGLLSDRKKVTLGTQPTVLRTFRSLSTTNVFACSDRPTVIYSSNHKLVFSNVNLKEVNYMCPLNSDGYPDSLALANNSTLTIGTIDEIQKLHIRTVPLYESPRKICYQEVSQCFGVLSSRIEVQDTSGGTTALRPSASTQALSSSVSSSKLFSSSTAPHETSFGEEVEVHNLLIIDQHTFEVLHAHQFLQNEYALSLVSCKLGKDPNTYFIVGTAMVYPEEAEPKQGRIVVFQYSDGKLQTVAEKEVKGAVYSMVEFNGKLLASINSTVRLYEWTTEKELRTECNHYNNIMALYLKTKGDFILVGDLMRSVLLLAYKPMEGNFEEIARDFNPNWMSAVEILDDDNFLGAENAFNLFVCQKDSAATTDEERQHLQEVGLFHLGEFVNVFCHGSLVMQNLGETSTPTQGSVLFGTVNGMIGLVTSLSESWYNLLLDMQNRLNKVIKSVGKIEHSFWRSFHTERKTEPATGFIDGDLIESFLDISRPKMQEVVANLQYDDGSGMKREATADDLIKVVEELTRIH
Type: binding
RECORDED CONDITIONS: His tagged CRBN+DDB1, Cy5-labeled Thalidomide probe, one hour; read-out: CRBN HTRF IC50
PROPERTY NAME: IC50

O=C1CC[C@H](N2Cc3c(ccc4c3OC[C@H]3CN(C[C@@H]5COC6(C5)CN(c5ccc([C@@H]7c8ccc(O)cc8CC[C@@H]7c7ccccc7)cc5)C6)CCN43)C2=O)C(=O)N1 (single isomer, unassigned): 50 to 500 nM
O=C1CCC(NC(=O)c2ccc3c(n2)OC[C@H]2CN(CC4CCN(c5ccc([C@H]6c7ccc(O)cc7CC[C@H]6c6ccccc6)cc5)CC4)CCN32)C(=O)N1 (stereo in doubt): 500 to 5000 nM
O=C1CC[C@H](N2Cc3c(ccc4c3OCC43CCN(CC4CCC5(CC4)CN(c4ncc([C@@H]6c7ccc(O)cc7CC[C@@H]6c6ccccc6)cn4)C5)CC3)C2=O)C(=O)N1: < 50 nM
O=C1CC[C@H](N2Cc3cc4c(cc3C2=O)OCC42CCN(CC3CC4(CCN(c5ccc([C@H]6c7ccc(O)cc7CC[C@H]6c6ccccc6)cn5)CC4)C3)CC2)C(=O)N1: 50 to 500 nM
O=C1CC[C@@H](Nc2ccc(C3CCN(C[C@H]4COC5(CCN(c6ccc([C@@H]7c8ccc(O)cc8CC[C@@H]7c7ccccc7)cc6)CC5)C4)CC3)cc2)C(=O)N1 (single isomer, unassigned): 50 to 500 nM

Which IC50 value belongs to O=C1CC[C@H](Nc2ccc(C3CCN(C[C@@H]4COC5(CCN(c6ccc([C@@H]7c8ccc(O)cc8CC[C@@H]7c7ccccc7)cc6)CC5)C4)CC3)c(F)c2)C(=O)N1 (single isomer, unassigned) ?
50 to 500 nM

Recorded IC50 of O=C1CC[C@H](N2Cc3cc4c(cc3C2=O)OC[C@@H]2CN(CC3COC5(C3)CN(c3ccc([C@H]6c7ccc(O)cc7CC[C@H]6c6ccccc6)cc3)C5)CCN42)C(=O)N1 (single isomer, unassigned) , please.
50 to 500 nM

Item `COc1cc([C@H]2c3ccc(O)cc3CC[C@H]2c2ccccc2)c(F)cc1N1CCC2(CC1)CC(CN1CCN3c4ccc5c(c4OC[C@H]3C1)CN([C@H]1CCC(=O)NC1=O)C5=O)C2` has what recorded IC50?
< 50 nM

Which measured IC50 value corresponds to `O=C1CC[C@H](N2Cc3c(ccc4c3OCC43CCN(CC4CCC5(CC4)CN(c4ccc([C@@H]6c7ccc(O)cc7CC[C@@H]6c6ccccc6)cn4)C5)CC3)C2=O)C(=O)N1` ?
< 50 nM

====

MEASURED ON: ER in MCF-7 cells (Homo sapiens (Human))
Sequence (P03372 whole entry): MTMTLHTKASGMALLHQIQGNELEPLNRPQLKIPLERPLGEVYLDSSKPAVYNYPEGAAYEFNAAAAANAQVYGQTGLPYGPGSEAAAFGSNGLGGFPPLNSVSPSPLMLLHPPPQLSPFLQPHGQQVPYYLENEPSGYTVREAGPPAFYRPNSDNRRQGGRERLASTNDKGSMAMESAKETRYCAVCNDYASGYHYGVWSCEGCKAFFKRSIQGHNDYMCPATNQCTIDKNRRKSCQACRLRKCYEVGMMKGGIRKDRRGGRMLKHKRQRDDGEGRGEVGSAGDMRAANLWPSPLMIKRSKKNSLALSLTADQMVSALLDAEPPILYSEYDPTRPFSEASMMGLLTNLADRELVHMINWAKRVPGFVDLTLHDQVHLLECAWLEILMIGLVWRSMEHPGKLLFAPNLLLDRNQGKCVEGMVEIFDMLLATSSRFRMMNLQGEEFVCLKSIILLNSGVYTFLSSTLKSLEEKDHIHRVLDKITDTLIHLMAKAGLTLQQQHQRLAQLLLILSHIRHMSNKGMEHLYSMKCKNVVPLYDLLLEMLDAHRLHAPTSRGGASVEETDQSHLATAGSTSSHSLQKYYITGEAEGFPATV
ASSAY PROCEDURE: In-cell Western (ICW) ER degradation assay in MCF-7 cells
Type: cell-based
RECORDED CONDITIONS: MCF-7, ER degradation, 16 hrs treatment; read-out: MCF7 DC50
PROPERTY NAME: DC50

The cases that follow already have their DC50 on record.
COC1(CN2CCN3c4ccc5c(c4OC[C@H]3C2)CN([C@H]2CCC(=O)NC2=O)C5=O)CCN(c2ccc([C@@H]3c4ccc(O)cc4CC[C@@H]3c3ccccc3)cc2)CC1: < 1 nM
O=C1CC[C@H](N2Cc3cc4c(cc3C2=O)OC[C@@H]2CN(CC3CC5(CCN(c6cnc(C7c8ccc(O)cc8CCC7c7ccccc7)cn6)CC5)C3)CCN42)C(=O)N1 (some centres unmarked): 1 to 10 nM
COc1cc(N2CCC(CCN3CCN4c5ccc6c(c5OC[C@H]4C3)CN([C@H]3CCC(=O)NC3=O)C6=O)CC2)c(F)cc1[C@@H]1c2ccc(O)cc2CC[C@@H]1c1ccccc1: < 1 nM
O=C1CC[C@@H](N2Cc3cc4c(cc3C2=O)OC[C@H]2CN(CC3COC5(C3)CN(c3ccc([C@H]6c7ccc(O)cc7CC[C@H]6c6ccccc6)cc3)C5)CCN42)C(=O)N1 (stereo in doubt): < 1 nM

Would you kindly look at the next entry?
Bench note: what DC50 did COc1cc(N2CCC3(CC2)CC(CN2CCN4c5ccc6c(c5OC[C@H]4C2)CN([C@H]2CCC(=O)NC2=O)C6=O)CO3)ccc1[C@H]1c2ccc(O)cc2CC[C@H]1c1ccccc1 (single isomer, unassigned) show?
< 1 nM
